Test system: MCF10A
Assay: one-nucleolus phenotype percent effect (relative to siNT 0% and siNOL11 100%); higher = more cells with one nucleolus (ribosome biogenesis inhibition)
Conditions: 20 nM; 72 h
Value kind: one-nucleolus phenotype percent effect
Include the unit after the number when you answer.

Please review the entries below; each comes with its answer.
1. CCCAAUACACGGUCGACCUCUU [hsa-miR-323b-3p] :: -23.7%
2. AUAGCAGCAUAAGCCUGUCUC [hsa-miR-4524b-5p] :: -0.0215%
3. AUAUUACCAUUAGCUCAUCUUU [hsa-miR-556-3p] :: -7.76%
4. CUGGCCUCUUCUUUCUCCUAG [hsa-miR-6878-3p] :: -7.63%

# input Name the recorded one-nucleolus phenotype percent effect for GCAGUCCAUGGGCAUAUACAC [hsa-miR-455-3p] .
# output -12.4%

# input Would you mind telling me what one-nucleolus phenotype percent effect value was observed for CUCACUCUCAGUCCCUCCCU [hsa-miR-6794-3p] ?
# output -18.1%

# input Query: one-nucleolus phenotype percent effect; subject: AGCAAAAUAAGCAAAUGGAAAA [hsa-miR-1468-3p]
# output -19.1%

# input Which one-nucleolus phenotype percent effect is listed for AAGUGUGCAGGGCACUGGU [hsa-miR-648] ?
# output 40.5%

# input What one-nucleolus phenotype percent effect value was documented for this sequence, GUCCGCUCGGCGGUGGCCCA [hsa-miR-572] ?
# output -16.2%
